Target: T1, HCV Core1-169 (HCV-1, UniProt P26664 1-169)
T1 construct: also called Solid Phase HCV Core
T1 sequence: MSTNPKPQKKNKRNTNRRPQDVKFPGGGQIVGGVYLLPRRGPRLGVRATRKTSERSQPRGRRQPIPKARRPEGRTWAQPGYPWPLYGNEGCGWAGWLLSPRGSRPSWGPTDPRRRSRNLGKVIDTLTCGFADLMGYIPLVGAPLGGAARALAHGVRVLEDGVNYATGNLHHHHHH
Assay: sandwich EIA, capture 208B-395-334
Would you kindly list OD492 for each of these binders?
// return numeric value only (unit: OD, not printed)

Reported OD492 of HCV 208A-557 (antibody, V domains shown) VH: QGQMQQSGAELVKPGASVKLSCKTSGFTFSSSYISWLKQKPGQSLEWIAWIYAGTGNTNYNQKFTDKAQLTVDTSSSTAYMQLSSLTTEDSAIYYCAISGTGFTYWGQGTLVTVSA VL: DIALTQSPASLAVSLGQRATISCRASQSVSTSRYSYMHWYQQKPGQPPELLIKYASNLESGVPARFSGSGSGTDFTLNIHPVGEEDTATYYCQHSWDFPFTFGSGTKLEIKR : 0.28

The reported OD492 of the binder HCV 208A-741 (antibody, V domains shown) VH: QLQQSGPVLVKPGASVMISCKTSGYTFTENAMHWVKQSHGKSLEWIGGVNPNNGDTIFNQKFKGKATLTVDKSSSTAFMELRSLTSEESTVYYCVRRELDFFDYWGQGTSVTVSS VL: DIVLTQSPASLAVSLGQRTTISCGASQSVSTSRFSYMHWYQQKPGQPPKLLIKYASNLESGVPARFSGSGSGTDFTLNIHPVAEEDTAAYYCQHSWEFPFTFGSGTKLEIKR was 0.34

Just so you know, measured OD492 for HCV 208A-293 (antibody, V domains shown) VH: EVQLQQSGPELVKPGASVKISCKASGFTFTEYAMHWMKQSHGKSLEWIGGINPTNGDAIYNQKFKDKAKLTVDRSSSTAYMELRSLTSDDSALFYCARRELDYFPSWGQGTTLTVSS VL: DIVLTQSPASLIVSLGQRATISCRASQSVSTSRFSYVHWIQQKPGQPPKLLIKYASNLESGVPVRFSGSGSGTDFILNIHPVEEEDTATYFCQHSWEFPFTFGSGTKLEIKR came out at 0.44
